Reported cytotoxicity at 10 µM values are given for each entry in this list.
Experimental Details: Toxicity liver stage against HepG2, at 10uM
Format: cell-based
Parameters: test concentration 10 uM, cell line HepG2-A16-CD81EGFP
Condition Notes: human, HepG2-A16-CD81EGFP cells; read-out: INHIBITION

| Compound | Output Unit | cytotoxicity at 10 µM |
| --- | --- | --- |
| COCC1c2nnn(C)c2CCN1C(=O)COc1ccccc1C (stereo unspecified) | % | -100 |
| COc1nn(C)c2c1CCCN(C(=O)c1ccc(C)c(F)c1)C2 | % | 8.21 |
| CC(C)N1CCC(CC(=O)NC(C(=O)O)c2cccc(F)c2)CC1 (stereo unspecified) | % | -0.114 |
| Cc1cc(C(=O)Nc2cccn(Cc3ccc(F)cc3)c2=O)on1 | % | 5.38 |
| Cc1nc(C(=O)NS(=O)(=O)c2cccc(C#N)c2)cs1 | % | -1.95 |
| CCNC(=O)c1ccc(NC(=O)N(C)Cc2cc(C)on2)cc1 | % | -4.22 |
| Cc1ccc(CN2CCC3(CC2)CCN(C(=O)c2cccn2C)C3)cc1 | % | -2.6 |
| Cc1nc(N(C)C)nc(-c2cccc(-c3ccn(CCCO)n3)c2)c1C | % | -6.51 |
| Cc1ccc(CC2CCCN2CC(=O)NCc2cccnc2)cc1 (stereo unspecified) | % | -3.83 |
| COCCc1noc(Cn2ccc3ccccc3c2=O)n1 | % | 0.0869 |
| NC(=O)CN1CCCN(C(=O)c2ccn(-c3ccccc3)n2)CC1 | % | -1.61 |

* * *

Reported cytotoxicity at 10 µM values are given for each entry in this list.
Experimental Details: Toxicity liver stage against HepG2, at 10uM
Assay type: cell-based
Parameters: test concentration 10 uM, cell line HepG2-A16-CD81EGFP
Condition Notes: human, HepG2-A16-CD81EGFP cells; read-out: INHIBITION

| Molecule | cytotoxicity at 10 µM, % |
| --- | --- |
| CCN(C)S(=O)(=O)c1c(F)cc(NC(C)=O)cc1F | -40.7 |
| COc1ccc(S(=O)(=O)N2CCC[C@@H]3CN(C(=O)C4CC4)C[C@@H]32)cc1F | 3.75 |
| OCCn1nnnc1Cc1ccc(Br)cc1 | 1.54 |
| NC(=O)c1cc2c(nc1Oc1cccc(CN3CCCC3)c1F)CCC2 | -1.47 |
| O=C(c1ccccc1)N1CCC2(CC1)CNc1c(F)cccc12 | 7.33 |
| Cc1cccc(N2CCC(NCc3cnc(C4CCC4)s3)CC2)n1 | 6.08 |
| CC(NC(=O)N(C)Cc1ccc(Cl)s1)c1ccccn1 (stereo unspecified) | 0.313 |
| FC(F)(F)COCCN1CCN(c2ccc3nncn3n2)CC1 | -7.77 |
| CCCn1nc2c(cc1=O)CN(CC1CCCCO1)CC2 (stereo unspecified) | 12.5 |
| Cc1ccc(S(=O)(=O)NC[C@H]2OC[C@@H](NCc3ccccn3)[C@@H]2O)cc1 | -52.5 |
| CC(Cn1cccn1)NCc1cccc(C#N)c1 (stereo unspecified) | 5.19 |

* * *

Reported cytotoxicity at 10 µM values are given for each entry in this list.
Experimental Details: Toxicity liver stage against HepG2, at 10uM
Format: cell-based
Parameters: test concentration 10 uM, cell line HepG2-A16-CD81EGFP
Condition Notes: human, HepG2-A16-CD81EGFP cells; read-out: INHIBITION

| Compound | cytotoxicity at 10 µM (%) |
| --- | --- |
| COCC(=O)NC1CC2(CCN(Cc3ccco3)CC2)c2ccccc21 (stereo unspecified) | 5.61 |
| N#Cc1cc(NS(=O)(=O)c2cc(C(=O)O)cc(Cl)c2Cl)ccc1F | -1.37 |
| CCc1nc(N)sc1C(=O)N1CCCC(CCc2ccccc2C)C1 (stereo unspecified) | 6.46 |
| COc1ccc(C(C)NC(=O)Nc2nccs2)cc1OC (stereo unspecified) | 4.37 |
| Cc1nn(C)c(C)c1C1CCCN1CC(=O)Nc1nccs1 (stereo unspecified) | -21.6 |
| CCOC(=O)C1(Cc2cccc(OC)c2)CCCN(Cc2ncc[nH]2)C1 (stereo unspecified) | 3.86 |

Source: ChEMBL document CHEMBL4513216
